test system: NCI-H358 cells; assay: Cell proliferation inhibitory activity, NCI-H358 (CellTiter-Glo); assay type: cell-based; settings: Homo sapiens; biological test 7, NCI-H358 cells; read-out: Cell proliferation inhibitory activity IC50 value of NCI-H358
endpoint: IC50

Qu. Param readout= IC50; system= NCI-H358 cells; entry= C=CC(=O)N1CCN(c2nc(=O)n(-c3c(CF)ccnc3C(C)C)c3nc(-c4ccccc4C=O)c(Cl)cc23)[C@@H](C)C1 [Compound 3-29] ; returns value.
Ans. < 50 nM

###

molecular target: hERG potassium channel (Homo sapiens, UniProt Q12809); construct: expressed in transfected cells; host or cells: HEK-293; test: hERG potassium channels, electrophysiological manual patch clamp; assay type: cell-based; conditions: HEK-293 cells overexpressing hERG
Sequence (Q12809 whole entry): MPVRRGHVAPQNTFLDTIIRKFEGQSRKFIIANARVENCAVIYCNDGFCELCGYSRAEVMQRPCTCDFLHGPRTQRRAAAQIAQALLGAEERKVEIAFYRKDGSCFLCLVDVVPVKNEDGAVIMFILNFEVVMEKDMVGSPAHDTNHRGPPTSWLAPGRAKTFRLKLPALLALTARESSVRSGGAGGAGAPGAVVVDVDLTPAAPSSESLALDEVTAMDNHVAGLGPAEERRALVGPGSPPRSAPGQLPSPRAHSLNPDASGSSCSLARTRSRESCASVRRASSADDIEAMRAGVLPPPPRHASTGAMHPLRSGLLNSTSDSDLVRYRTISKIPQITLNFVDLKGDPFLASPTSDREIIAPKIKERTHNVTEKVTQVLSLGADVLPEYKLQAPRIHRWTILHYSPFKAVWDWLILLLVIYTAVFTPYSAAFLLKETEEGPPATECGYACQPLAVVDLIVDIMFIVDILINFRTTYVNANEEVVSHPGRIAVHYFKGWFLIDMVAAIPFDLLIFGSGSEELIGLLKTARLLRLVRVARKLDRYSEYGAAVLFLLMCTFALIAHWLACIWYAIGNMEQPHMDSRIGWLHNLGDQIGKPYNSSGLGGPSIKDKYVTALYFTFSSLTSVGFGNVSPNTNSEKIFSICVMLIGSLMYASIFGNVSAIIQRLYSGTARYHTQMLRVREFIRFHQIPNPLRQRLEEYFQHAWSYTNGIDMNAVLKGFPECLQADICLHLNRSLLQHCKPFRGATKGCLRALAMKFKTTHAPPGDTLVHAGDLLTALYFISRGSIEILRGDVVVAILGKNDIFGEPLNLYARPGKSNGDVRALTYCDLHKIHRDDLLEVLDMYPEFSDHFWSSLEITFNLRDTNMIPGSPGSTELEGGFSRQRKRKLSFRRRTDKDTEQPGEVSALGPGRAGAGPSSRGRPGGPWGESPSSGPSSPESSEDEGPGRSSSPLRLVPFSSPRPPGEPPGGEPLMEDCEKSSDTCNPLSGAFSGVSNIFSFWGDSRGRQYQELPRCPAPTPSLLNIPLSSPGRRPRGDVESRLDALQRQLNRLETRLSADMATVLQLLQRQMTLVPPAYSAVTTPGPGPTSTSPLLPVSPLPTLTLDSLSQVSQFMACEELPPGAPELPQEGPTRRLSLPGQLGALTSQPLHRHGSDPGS
pIC50: −log10 of the molar value.
endpoint: pIC50

Qu. Given [2H]C(=O)c1ccccc1-c1nc2c(cc1Cl)c(N1CCN(C(=O)C=C)C[C@@H]1C)nc(=O)n2-c1c(C)ccnc1C(C)C (atropisomer, axis not shown) [Compound 3-16M] , state its recorded pIC50.
Ans. < 4.00
